Task for the reader: assign each of the following compounds its reported MIC.
test system: Enterococcus faecalis; experiment: Antibacterial activity against Enterococcus faecalis ATCC 19433 incubated for 16 to 20 hrs; assay type: functional; details: time 16-20 hrs

Lab book: MIC of CCCCCCC[C@@H]1CC(=O)N[C@H](CC(C)C)C(=O)N[C@@H](CO)C(=O)N[C@@H]([C@@H](C)O)C(=O)N[C@H](Cc2ccccc2)C(=O)N[C@@H]([C@H](C)CC)C(=O)O1 noted as 32 µg/mL

Lab book: MIC of CCCCCCC[C@@H](O)CC(=O)N[C@H](CC(C)C)C(=O)N[C@@H](CO)C(=O)N[C@H](C(=O)N[C@H](Cc1ccccc1)C(=O)N[C@H](C(=O)OC)[C@H](C)CC)[C@@H](C)O noted as > 128 µg/mL

Lab book: MIC of CCCCCCC[C@@H]1CC(=O)N[C@H](CC(C)C)C(=O)N[C@@H](CO)C(=O)N[C@@H]([C@@H](C)O)C(=O)N[C@H](Cc2ccc(O)cc2)C(=O)N[C@@H](C(C)C)C(=O)O1 noted as > 128 µg/mL
